# tgt: SMARCA4-HiBiT (Homo sapiens)
# Construct: SMARCA4-HiBiT knock-in Hela monoclonal cell (CS3023226); host or cells: HeLa monoclonal knock-in line (CRISPR HiBiT knock-in at the endogenous locus, heterozygous)
# Sequence (P51532 whole entry): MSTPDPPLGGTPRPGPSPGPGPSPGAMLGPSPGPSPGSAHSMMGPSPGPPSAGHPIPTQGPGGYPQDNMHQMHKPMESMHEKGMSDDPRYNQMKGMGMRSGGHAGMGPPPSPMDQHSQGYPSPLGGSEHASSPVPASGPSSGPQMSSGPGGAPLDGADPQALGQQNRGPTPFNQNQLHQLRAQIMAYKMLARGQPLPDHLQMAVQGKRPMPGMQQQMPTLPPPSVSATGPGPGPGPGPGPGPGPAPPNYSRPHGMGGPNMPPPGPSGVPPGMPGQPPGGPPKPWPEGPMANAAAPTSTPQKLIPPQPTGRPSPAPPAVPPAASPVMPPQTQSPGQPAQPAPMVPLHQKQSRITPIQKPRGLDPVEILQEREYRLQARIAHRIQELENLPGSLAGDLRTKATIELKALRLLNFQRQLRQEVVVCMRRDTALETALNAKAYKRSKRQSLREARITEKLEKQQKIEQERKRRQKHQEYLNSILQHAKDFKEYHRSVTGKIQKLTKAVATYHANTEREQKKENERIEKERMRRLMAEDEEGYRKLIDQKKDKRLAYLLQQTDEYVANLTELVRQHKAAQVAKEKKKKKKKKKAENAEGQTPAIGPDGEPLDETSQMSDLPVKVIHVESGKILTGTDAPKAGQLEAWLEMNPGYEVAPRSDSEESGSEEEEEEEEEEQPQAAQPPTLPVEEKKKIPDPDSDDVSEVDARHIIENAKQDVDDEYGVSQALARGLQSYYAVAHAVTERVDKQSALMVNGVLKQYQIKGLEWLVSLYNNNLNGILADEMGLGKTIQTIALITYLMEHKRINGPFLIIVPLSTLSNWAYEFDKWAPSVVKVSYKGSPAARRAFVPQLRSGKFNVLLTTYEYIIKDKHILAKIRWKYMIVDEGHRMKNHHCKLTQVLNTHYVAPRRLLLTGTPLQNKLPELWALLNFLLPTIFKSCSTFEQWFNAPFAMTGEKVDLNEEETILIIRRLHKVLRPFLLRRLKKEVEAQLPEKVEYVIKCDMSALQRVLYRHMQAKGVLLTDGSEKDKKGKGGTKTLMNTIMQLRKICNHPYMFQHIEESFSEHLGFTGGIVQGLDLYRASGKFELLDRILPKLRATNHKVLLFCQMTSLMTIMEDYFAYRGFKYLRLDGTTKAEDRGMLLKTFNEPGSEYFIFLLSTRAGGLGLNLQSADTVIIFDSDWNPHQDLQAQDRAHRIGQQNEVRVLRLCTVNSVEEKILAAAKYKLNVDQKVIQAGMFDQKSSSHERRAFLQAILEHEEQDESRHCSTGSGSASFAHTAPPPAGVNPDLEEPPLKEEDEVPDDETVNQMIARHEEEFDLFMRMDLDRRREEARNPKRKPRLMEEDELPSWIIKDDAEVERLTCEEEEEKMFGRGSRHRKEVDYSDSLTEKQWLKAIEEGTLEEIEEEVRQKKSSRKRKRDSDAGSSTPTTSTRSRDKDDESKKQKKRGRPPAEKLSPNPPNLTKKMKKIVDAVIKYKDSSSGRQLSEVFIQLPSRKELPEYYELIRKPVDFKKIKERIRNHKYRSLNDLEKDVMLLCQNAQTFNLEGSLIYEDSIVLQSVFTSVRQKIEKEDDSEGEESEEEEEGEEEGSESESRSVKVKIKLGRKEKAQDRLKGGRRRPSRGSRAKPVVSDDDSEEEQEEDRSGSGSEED
# protocol.text: SMARCA4 HiBiT degradation assay in HeLa cells
# Assay type: cell-based
# experimental.context: 18 hours incubation, read-out: HeLa-HiBit-SM4 DC50
endpoint: DC50

Report DC50 for CC1CN(c2ccc3c(c2)C(=O)N(C2CCC(=O)NC2=O)C3=O)CCC1CN1C[C@@H]2[C@H](C1)[C@H]2CN1CCN2c3cc(-c4ccccc4O)nnc3NC[C@H]2C1 (some centres unmarked) [Example 198]
< 10 nM

Report DC50 for O=C1CCC(N2C(=O)c3ccc(N4CCN(C5CCN(CCN6CCN7c8cc(-c9ccccc9O)nnc8NC[C@H]7C6)C5)CC4)cc3C2=O)C(=O)N1 (some centres unmarked)
< 10 nM

Report DC50 for O=C1CCC(N2C(=O)c3ccc(N4CCC(CN5CCC(CN6CCN7c8cc(-c9ccccc9O)nnc8NC[C@H]7C6)CC5)CC4)cc3C2=O)C(=O)N1COC(=O)C1(O)CC1 (some centres unmarked)
< 10 nM

Report DC50 for O=C1CCC(N2C(=O)c3cccc(N4CCC(N5CCC(N6CCN7c8cc(-c9ccccc9O)nnc8NC[C@H]7C6)CC5)CC4)c3C2=O)C(=O)N1 (some centres unmarked)
< 10 nM

Report DC50 for CC1(CN2C[C@@H]3[C@@H](CN4CCN5c6cc(-c7ccccc7O)nnc6NC[C@H]5C4)[C@@H]3C2)CCN(c2ccc3c(c2)C(=O)N(C2CCC(=O)NC2=O)C3=O)C1 (some centres unmarked)
10 to 100 nM
